Target under test: (NANP)6 (Plasmodium falciparum)
Run description: BLI, target on sensor
Metric: Kd (nM)
# value in nM; strip the unit string

Reported Kd ( AB-007037 (antibody, V domains shown) VH: QMQLVESGGGVVQPGRSLRLSCTASGFTFSTYAMHWVRQSPGQGLQWVAVISYHSTNKYYEDSVKGRFTISRDNSKNTLYLQMNSLRAEDTAVYYCARDGYSSSFFDFWGQGTLVTVSS VL: DIQMTQSPSTLSASVGDRVAITCRASQSISRWLAWYQQQPGKAPKLLMSGASVLESGVPSRFSGSGSGTEFTLTISSLQPDDFATYYCQHYNSYFVTFGQGTKVEIK ) = 0.384

Reported Kd ( AB-007073 (antibody, V domains shown) VH: QMQLVESGGGVVQPGRSLRLSCTASGFTFSTYAMHWVRQSPGQGLQWVAVISYHSTNKYYEDSVRGRFTISRDNSKNTLYLQMNSLRAEDTAVYYCARDGYSSSFFDFWGQGTLVTVSS VL: DIQMTQSPSTLSASVGDRVAITCRASQSISRWLAWYQQQPGKAPKLLMSGASVLESGVPSRFSGSGSGTEFTLTISSLQPDDFATYYCQHYNSHFVTFGQGTKVEIK ) = 0.627

Reported Kd ( AB-007030 (antibody, V domains shown) VH: QMQLVESGGGVVQPGRSLRLSCTASGFTFSTYAMHWVRQSPGQGLEWVAVISYHSTNKYYADSVRGRFTISRDNSKNTLYLQMNSLRAEDTAVYYCARDGYSSSFFDFWGQGTLVTVSS VL: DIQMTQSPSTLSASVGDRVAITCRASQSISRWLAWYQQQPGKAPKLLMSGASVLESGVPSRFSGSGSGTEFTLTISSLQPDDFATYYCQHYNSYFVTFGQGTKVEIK ) = 0.526
